Reported kinase still bound, per cent of control is given for each of the following compounds.
assay.system: CHUK (human)
test.description: KINOMEscan competition binding
run.conditions: compound 10.0 µM

{"compound": "Cc1ccc2nc(NCCN)c3ncc(C)n3c2c1", "kinase still bound, per cent of control (%)": 86}
{"compound": "C=CC(=O)Nc1cccc(Nc2nc(N[C@H]3CC[C@H](N(C)C)CC3)nc3c2ncn3C(C)C)c1", "kinase still bound, per cent of control (%)": 82}
{"compound": "C=CC(=O)Nc1cc(NC(=O)c2ccc(C)c(NC(=O)c3ccno3)c2)cc(C(F)(F)F)c1", "kinase still bound, per cent of control (%)": 100}
{"compound": "O=C(O)c1ccc(Nc2ncc3c(n2)-c2ccc(Cl)cc2C(c2c(F)cccc2F)=NC3)cc1", "kinase still bound, per cent of control (%)": 100}
{"compound": "CN(C)C/C=C/C(=O)Nc1cccc(Nc2ncc3c(n2)N(C)c2ccccc2C(=O)N3C)c1", "kinase still bound, per cent of control (%)": 100}
{"compound": "COc1cc(C(=O)NC2CCN(C)CC2)ccc1Nc1ncc2c(n1)N(C1CCCC1)CCC(=O)N2C(C)C", "kinase still bound, per cent of control (%)": 100}
{"compound": "Cn1c(=O)n(-c2ccc(C(C)(C)C#N)cc2)c2c3cc(-c4cnc5ccccc5c4)ccc3ncc21", "kinase still bound, per cent of control (%)": 100}
{"compound": "COc1cc(N2CCN(C)CC2)ccc1Nc1nc(N)c(C(=O)c2c(Cl)cccc2Cl)s1", "kinase still bound, per cent of control (%)": 58}
{"compound": "Nc1ccc(-c2ccc3ncc4ccc(=O)n(-c5cccc(C(F)(F)F)c5)c4c3c2)cn1", "kinase still bound, per cent of control (%)": 55}
{"compound": "Cc1cc([C@@H](C)Nc2ccccc2C(=O)O)c2nc(N3CCOCC3)cc(=O)n2c1", "kinase still bound, per cent of control (%)": 100}
{"compound": "CCC(=O)N1CCN(c2ccc(-n3c(=O)ccc4cnc5ccc(-c6cnc7ccccc7c6)cc5c43)cc2C(F)(F)F)CC1", "kinase still bound, per cent of control (%)": 41}
{"compound": "C=CC(=O)Nc1cccc(Oc2nc(Nc3ccc(N4CCN(C)CC4)cc3OC)ncc2Cl)c1", "kinase still bound, per cent of control (%)": 100}
{"compound": "C[C@@H](Oc1cc(-n2cnc3ccc(CN4CCN(C)CC4)cc32)sc1C(N)=O)c1ccccc1C(F)(F)F", "kinase still bound, per cent of control (%)": 65}
{"compound": "CCCS(=O)(=O)Nc1ccc(F)c(C(=O)c2c[nH]c3ncc(-c4ccc(Cl)cc4)cc23)c1F", "kinase still bound, per cent of control (%)": 87}
{"compound": "CCN1CCN(Cc2ccc(Nc3ncc4c(n3)N(C)c3ccccc3C(=O)N4C)cc2C(F)(F)F)CC1", "kinase still bound, per cent of control (%)": 100}
{"compound": "O=C(NC1CC1)c1cccc(-c2ccc3c(NC(=O)C4CC4)n[nH]c3c2)c1", "kinase still bound, per cent of control (%)": 76}
{"compound": "O=C(NOC[C@H](O)CO)c1ccc(F)c(F)c1Nc1ccc(I)cc1F", "kinase still bound, per cent of control (%)": 100}
{"compound": "OCCCNc1cc(-c2ccnc(Nc3cccc(Cl)c3)n2)ccn1", "kinase still bound, per cent of control (%)": 100}
{"compound": "Cc1ccc(NC(=O)c2cccc(C(C)(C)C#N)c2)cc1Nc1ccc2ncn(C)c(=O)c2c1", "kinase still bound, per cent of control (%)": 72}
{"compound": "CC[C@@H]1C(=O)N(C)c2cnc(Nc3ccc(C(=O)NC4CCN(C)CC4)cc3OC)nc2N1C1CCCC1", "kinase still bound, per cent of control (%)": 100}
{"compound": "O=C1Nc2ccc(I)cc2/C1=C/c1cc(Br)c(O)c(Br)c1", "kinase still bound, per cent of control (%)": 100}
{"compound": "Cc1ccc(C(=O)Nc2cccc(C(F)(F)F)c2)cc1Nc1cncc(C(N)=O)c1", "kinase still bound, per cent of control (%)": 100}
{"compound": "COc1cc(C(=O)NC2CCN(C)CC2)ccc1Nc1ncc2c(n1)N(C1CCCC1)C(C)CC(=O)N2C (centres undefined)", "kinase still bound, per cent of control (%)": 100}
{"compound": "CCOc1cc2ncc(C#N)c(Nc3ccc(OCc4ccccn4)c(Cl)c3)c2cc1NC(=O)/C=C/CN(C)C", "kinase still bound, per cent of control (%)": 81}

Recorded values, source the kinase profiling compilation of Christmann-Franck et al. (2016).
